All figures here come from patent US20250197505A1.

Target: T1, human CD94 expressed on cells (human primary NK cells in PBMCs; HEK cells expressing human CD94) (human, UniProt Q13241 1-179)
T1 construct: whole, on cells; also called KLRD1; Natural killer cells antigen CD94
T1 sequence (looked up): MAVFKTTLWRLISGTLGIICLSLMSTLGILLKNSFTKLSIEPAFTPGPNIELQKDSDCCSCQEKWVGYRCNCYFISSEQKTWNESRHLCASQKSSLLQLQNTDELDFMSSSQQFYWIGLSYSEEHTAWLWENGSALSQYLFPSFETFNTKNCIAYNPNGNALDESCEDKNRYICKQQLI
Assay: flow cytometry, HEK cells expressing human CD94, 1st run
pEC50: −log10 of the molar value.
The following binders are listed with their measured pEC50 values.

BINDER	pEC50
Ab.22 hG1 (antibody, V domains shown, Human IgG1 form; also called Ab.22 human IgG1) VH: EVQLVESGGGLVKPGGSLRLSCAASGFTFSSYSMNWVRQAPGKGLEWVSSISTSSNFIYYADSVKGRFTISRDNAKNSLYLQMNSLRAEDTAVYYCARDLGRYYYYMDVWGKGTTVTVSS VL: DIVMTQSPSSLSASVGDRVTITCRASQSISSWLAWYQQKPGKAPKSLIYAASSLQSGVPSKFSGSGSGTDFTLTISSLQPEDVATYYCQKYNSAPFTFGPGTKVDIK	9.92
ATX-130 hG1 (antibody, V domains shown, Human IgG1 form; also called ATX-130 human IgG1) VH: EVQLLESGGGLVKPGGSLRLSCAASGFTFSSYSMNWVRQAPGKGLEWVSSISTSSNFIYYADSVKGRFTISRDNAKNSLYLQMNSLRAEDTAVYYCARDLGRYYYYMDVWGKGTTVTVSS VL: DIVMTQSPSSLSASVGDRVTITCRASQSISSWLAWYQQKPGKAPKSLIYAASSLQSGVPSKFSGSGSGTDFTLTISSLQPEDVATYYCQKYNSAPFTFGPGTKVDIK	9.96
Ab.24 hG1 (antibody, V domains shown, Human IgG1 form; also called Ab.24 human IgG1) VH: EVQLLESGGGLVKPGGSLRLSCAASGFTFSSYSMNWVRQAPGKGLEWVSSISTSSSFIYYADSVKGRFTISRDNAKNSLYLQMNSLRAEDTAVYYCARDLGRYYYYMDVWGKGTTVTVSS VL: DIVMTQSPSSLSASVGDRVTITCRASQSISSWLAWYQQKPGKAPKSLIYAASSLQSGVPSKFSGSGSGTDFTLTISSLQPEDVATYYCQKYNSAPFTFGPGTKVDIK	9.85
